System: mGluR5 (Rattus norvegicus) | Read-out: IC50
Sequence (P31424 21-1203): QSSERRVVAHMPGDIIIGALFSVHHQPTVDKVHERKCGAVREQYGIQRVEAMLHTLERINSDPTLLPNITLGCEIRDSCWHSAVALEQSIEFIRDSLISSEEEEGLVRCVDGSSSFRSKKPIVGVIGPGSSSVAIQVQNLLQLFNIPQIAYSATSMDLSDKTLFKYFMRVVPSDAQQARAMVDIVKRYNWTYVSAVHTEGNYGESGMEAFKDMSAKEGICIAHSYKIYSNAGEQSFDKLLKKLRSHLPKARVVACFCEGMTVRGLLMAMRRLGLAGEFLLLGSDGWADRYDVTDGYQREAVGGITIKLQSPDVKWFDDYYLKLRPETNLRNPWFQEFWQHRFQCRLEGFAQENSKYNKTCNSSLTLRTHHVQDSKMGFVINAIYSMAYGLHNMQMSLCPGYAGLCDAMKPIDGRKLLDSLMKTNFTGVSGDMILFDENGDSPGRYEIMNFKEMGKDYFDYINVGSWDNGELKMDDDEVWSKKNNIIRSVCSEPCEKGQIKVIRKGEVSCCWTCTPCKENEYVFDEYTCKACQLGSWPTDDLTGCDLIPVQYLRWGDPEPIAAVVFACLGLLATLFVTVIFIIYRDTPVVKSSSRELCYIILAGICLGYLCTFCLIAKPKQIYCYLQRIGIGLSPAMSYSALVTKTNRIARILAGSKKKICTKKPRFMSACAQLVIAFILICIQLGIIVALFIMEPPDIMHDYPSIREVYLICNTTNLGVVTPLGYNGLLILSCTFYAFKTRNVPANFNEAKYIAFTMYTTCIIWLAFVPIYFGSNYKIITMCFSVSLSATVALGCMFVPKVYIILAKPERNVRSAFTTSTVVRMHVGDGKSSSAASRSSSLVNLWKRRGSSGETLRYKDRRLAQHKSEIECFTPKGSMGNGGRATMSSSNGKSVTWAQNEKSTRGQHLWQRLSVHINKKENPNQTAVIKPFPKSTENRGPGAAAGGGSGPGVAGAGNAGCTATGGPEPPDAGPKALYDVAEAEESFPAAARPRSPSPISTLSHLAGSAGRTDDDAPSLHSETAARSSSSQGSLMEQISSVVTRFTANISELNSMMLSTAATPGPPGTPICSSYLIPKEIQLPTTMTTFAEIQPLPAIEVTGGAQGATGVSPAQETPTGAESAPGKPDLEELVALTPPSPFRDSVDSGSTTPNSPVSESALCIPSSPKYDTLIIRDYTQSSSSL

molecule	assay-target	IC50
FCc1cccc(C#CCCc2cn3cc(F)ccc3n2)n1 [Example 223]	mGluR5 (Rattus norvegicus)	< 500 nM
COc1cccc2nc(CCC#Cc3ccccn3)oc12 [Example 94]	mGluR5 (Rattus norvegicus)	< 50 nM
O=CNc1cccc(C#CCCn2nc3ccccc3n2)n1 [Example 175]	mGluR5 (Rattus norvegicus)	< 10000 nM
Cc1ccc(F)cc1-c1noc(CCC#Cc2ccccn2)n1 [Example 59]	mGluR5 (Rattus norvegicus)	< 10000 nM
FCc1cccc(C#CCCn2cc3cccc(F)c3n2)n1 [Example 155]	mGluR5 (Rattus norvegicus)	< 50 nM

Prompt: Provide the documented IC50 with mGluR5 (Rattus norvegicus) as the system for C(#Cc1ccccn1)CCc1nc2ccccc2o1.Cl [Example 8, Hydrochloride]
Completion: < 50 nM

Prompt: Provide the documented IC50 with mGluR5 (Rattus norvegicus) as the system for Fc1cccc2nc(CCC#Cc3ccccn3)oc12 [Example 64]
Completion: < 50 nM

Prompt: Provide the documented IC50 with mGluR5 (Rattus norvegicus) as the system for Cc1cccc(C#CCCn2nc3ccccc3n2)n1 [Example 137]
Completion: < 50 nM

Prompt: Provide the documented IC50 with mGluR5 (Rattus norvegicus) as the system for Fc1ccc(-c2ccnn2CCC#Cc2ccccn2)cc1 [Example 171]
Completion: < 10000 nM

Prompt: Provide the documented IC50 with mGluR5 (Rattus norvegicus) as the system for Cc1cccc2nc(CCC#Cc3ccccn3)oc12 [Example 91]
Completion: < 50 nM

These entries and their values trace back to patent US8883826B2.
